Quick list: melting point per entry.
// return numeric value only (unit: °C, not printed)

[[record]]
compound = "CCn1c(C)c(CCNC2CCN(c3ncc(C(=O)NO)cn3)CC2)c2ccccc21 [Compound 23]"
quantitykind = "melting point"
val = 182

[[record]]
compound = "Cn1cc(CCNCC2CCN(c3ncc(C(=O)NO)cn3)CC2)c2cc(Cl)ccc21 [Compound 26]"
quantitykind = "melting point"
val = 188

[[record]]
compound = "O=C(NO)c1cnc(N2CCC(CNCc3c[nH]c4ccc(Cl)cc34)CC2)nc1 [Compound 2]"
quantitykind = "melting point"
val = 205

[[record]]
compound = "Cn1cc(CCNCC2CCN(c3ncc(C(=O)NO)cn3)CC2)c2ccccc21 [Compound 19]"
quantitykind = "melting point"
val = 174

[[record]]
compound = "Cn1cc(CCN(CC2CCN(c3ncc(C(=O)NO)cn3)CC2)S(C)(=O)=O)c2cc(Cl)ccc21 [Compound 22]"
quantitykind = "melting point"
val = 183

[[record]]
compound = "CCN(Cc1cn(CC)c2ccccc12)CC1CCN(c2ncc(C(=O)NO)cn2)CC1 [Compound 20]"
quantitykind = "melting point"
val = 90


Task: Which melting point value is on record for COc1ccc2c(CCNCC3CCN(c4ncc(C(=O)NO)cn4)CC3)cn(C)c2c1 [Compound 24] ?
Result: 160

Task: Given CN(CCc1cn(C)c2ccccc12)CC1CCN(c2ncc(C(=O)NO)cn2)CC1 [Compound 21] , state its recorded melting point.
Result: 83

----------
- targetOrTestSystem: histone deacetylase (HeLa nuclear extracts)
- experimentalDetails: In vitro assay for inhibition of histone deacetylase with fluorescent-labelled substrate (C.1.b)
- Type: biochemical
- measurementConditions: Fluor de Lys substrate
quantityKind: Enzymatic activity pIC50 C.1.b
Answer with a bare number; do not write a unit.

[[record]]
compound = "Cc1cccc2c(CNCC3CCN(c4ncc(C(=O)NO)cn4)CC3)cn(C)c12 [Compound 37]"
targetortestsystem = "histone deacetylase (HeLa nuclear extracts)"
quantitykind = "Enzymatic activity pIC50 C.1.b"
val = 8.6


Task: I would be grateful if you could share the reported Enzymatic activity pIC50 C.1.b for Cn1cc(CNCC2CCN(c3ncc(C(=O)NO)cn3)CC2)c2c(F)cccc21 [Compound 39] .
Result: 9.0

Task: I have this compound here, Cn1cc(CNCC2CCN(c3ncc(C(=O)NO)cn3)CC2)c2ccc(Cl)cc21 [Compound 56] , and I need its recorded Enzymatic activity pIC50 C.1.b.
Result: 9.2

Task: Which Enzymatic activity pIC50 C.1.b reading was recorded for the compound CCC(=O)N(CCc1cn(C)c2ccc(Cl)cc12)CC1CCN(c2ncc(C(=O)NO)cn2)CC1 [Compound 69] ?
Result: 7.6

Task: Any idea what Enzymatic activity pIC50 C.1.b was measured for Cc1[nH]c2ccccc2c1CCNC1CCN(c2ncc(C(=O)NO)cn2)CC1 [Compound 29] ?
Result: 7.9

Task: What Enzymatic activity pIC50 C.1.b value was documented for this compound, Cn1cc(CNCC2CCN(c3ccc(C(=O)NO)cn3)CC2)c2ccccc21 [Compound 80] ?
Result: 7.8

Task: // Enzymatic activity pIC50 C.1.b lookup, key: Cn1cc(CNCC2CCN(c3ncc(C(=O)NO)cn3)CC2)c2cc(F)ccc21 [Compound 51]
Result: 9.8

Task: Sample CCCn1cc(CCNCC2CCN(c3ncc(C(=O)NO)cn3)CC2)c2ccccc21 [Compound 31] — what was its Enzymatic activity pIC50 C.1.b?
Result: 8.2
